run-description: clinical
reported-conditions: both, human, in vivo, AUC0-t
parameter: AUC(0-t) (ng·h/mL)
Numbers only, in ng·h/mL.

Prompt: Please report the measured AUC(0-t) for Cn1c(N)c(NC(=O)NCCN)c[n+]1CC1=C(C(=O)O)N2C(=O)[C@@H](NC(=O)/C(=N\OC(C)(C)C(=O)O)c3nsc(N)n3)[C@H]2SC1
Response: 97100

* * *

run-description: clinical
reported-conditions: both sexes, human, in vivo, t1/2, mean (CV %)
parameter: half-life (min)
Give bare numbers, in min.

compound-structure-string: Cn1c(N)c(NC(=O)NCCN)c[n+]1CC1=C(C(=O)O)N2C(=O)[C@@H](NC(=O)/C(=N\OC(C)(C)C(=O)O)c3nsc(N)n3)[C@H]2SC1
scale-unit: min
half-life: 137

Moving on to another molecule below.
Prompt: Please report the measured half-life for C[C@]1(Cn2ccnn2)[C@H](C(=O)O)N2C(=O)C[C@H]2S1(=O)=O
Response: 52.2
